assay_info: Approximate kinetic solubility in pharmaceutical co-solvents
Assay type: physicochemical
condition_parameters: aqueous with cosolvent or surfactant or cyclodextrin, thermodynamic from solid; 50% Labrasol in aqueous solution, no-pH adjustment, 24 hrs.
Where a name gives a salt, the structure may show the parent alone.
reported_endpoint: solubility kinetic at 24 h (µg/mL)
A number alone suffices; assume µg/mL.

*Q* Which solubility kinetic at 24 h is listed for CCS(=O)(=O)N1CCN(c2ccc(Nc3ncc(C(N)=O)c(NC4CC4)n3)cc2)CC1 [Compound I HCl Form I] ?
*A* 2650

---

assay_info: Approximate kinetic solubility in pharmaceutical co-solvents
Assay type: physicochemical
condition_parameters: aqueous with cosolvent or surfactant or cyclodextrin, thermodynamic from solid; 10% TPGS in aqueous solution, no-pH adjustment, 2 hrs.
Structures can show the parent of a compound that is named as a salt.
reported_endpoint: solubility kinetic at 2 h (µg/mL)
A number alone suffices; assume µg/mL.

*Q* Which solubility kinetic at 2 h is listed for CCS(=O)(=O)N1CCN(c2ccc(Nc3ncc(C(N)=O)c(NC4CC4)n3)cc2)CC1 [Compound I HCl Form I] ?
*A* 1800

---

assay_info: Further solubility testing of Compound I HCl Form I in solvents
Format: physicochemical
condition_parameters: THF/H2O, 4:1 (v/v), organic solvent or mixture
Structures can show the parent of a compound that is named as a salt.
reported_endpoint: solubility

*Q* Which solubility is listed for CCS(=O)(=O)N1CCN(c2ccc(Nc3ncc(C(N)=O)c(NC4CC4)n3)cc2)CC1 [Compound I HCl Form I] ?
*A* 2000 to 2500 µg/mL

---

assay_info: Approximate kinetic solubility in pharmaceutical co-solvents
Type: physicochemical
condition_parameters: aqueous with cosolvent or surfactant or cyclodextrin, thermodynamic from solid; 10% Pharmasolve in aqueous solution, no-pH adjustment, 2 hrs.
Structures can show the parent of a compound that is named as a salt.
reported_endpoint: solubility kinetic at 2 h (µg/mL)
A number alone suffices; assume µg/mL.

*Q* Which solubility kinetic at 2 h is listed for CCS(=O)(=O)N1CCN(c2ccc(Nc3ncc(C(N)=O)c(NC4CC4)n3)cc2)CC1 [Compound I HCl Form I] ?
*A* 700

---

assay_info: Approximate kinetic solubility in organic solvents
Format: physicochemical
condition_parameters: Methanol, Ethanol, PG, Safflower Seed Oil, Tween 80, organic solvent or mixture, kinetic from dmso stock
Where a name gives a salt, the structure may show the parent alone.
reported_endpoint: solubility kinetic

*Q* Which solubility kinetic is listed for CCS(=O)(=O)N1CCN(c2ccc(Nc3ncc(C(N)=O)c(NC4CC4)n3)cc2)CC1 [Compound I HCl Form I] ?
*A* 100 to 1000 µg/mL

---

assay_info: Approximate kinetic solubility in pharmaceutical co-solvents
Assay type: physicochemical
condition_parameters: aqueous with cosolvent or surfactant or cyclodextrin, thermodynamic from solid; 20% Labrasol in aqueous solution, no-pH adjustment, 24 hrs.
Where a name gives a salt, the structure may show the parent alone.
reported_endpoint: solubility kinetic at 24 h
In your response, the unit should come after the numeric value.

*Q* Which solubility kinetic at 24 h is listed for CCS(=O)(=O)N1CCN(c2ccc(Nc3ncc(C(N)=O)c(NC4CC4)n3)cc2)CC1 [Compound I HCl Form I] ?
*A* 1850 µg/mL

---

assay_info: Approximate kinetic solubility in pharmaceutical co-solvents
Assay type: physicochemical
condition_parameters: aqueous with cosolvent or surfactant or cyclodextrin, thermodynamic from solid; 5% Poloxamer F68 in aqueous solution, no-pH adjustment, 24 hrs.
Where a name gives a salt, the structure may show the parent alone.
reported_endpoint: solubility kinetic at 24 h (µg/mL)
A number alone suffices; assume µg/mL.

*Q* Which solubility kinetic at 24 h is listed for CCS(=O)(=O)N1CCN(c2ccc(Nc3ncc(C(N)=O)c(NC4CC4)n3)cc2)CC1 [Compound I HCl Form I] ?
*A* 180
